meta.source: paper PMC9687610

- System: Mycobacterium smegmatis DSM 43465 (ATCC 607)
- method summary: Microplate Alamar Blue Assay (MABA), M. smegmatis
- Type: cell-based
- condition details: Mycolicibacterium smegmatis, 48 h, read-out: M. smegmatis MIC
Below is a list of entries, each paired with its recorded MIC value.
result type: MIC

molecule: NC(=O)c1nccnc1NC(=O)c1cccc(Cl)c1
measured: ≥ 125 µg/mL
--
molecule: COc1ccc(C(=O)Nc2nccnc2C(N)=O)cc1
measured: ≥ 125 µg/mL
--
molecule: COC(=O)c1nccnc1NC(=O)C12CC3CC(CC(C3)C1)C2 [Compound 28e]
measured: ≥ 125 µg/mL
--
molecule: CC(C)(C)c1ccc(C(=O)Nc2nccnc2C(N)=O)cc1
measured: 15.6 µg/mL
--
molecule: NC(=O)c1nccnc1NC(=O)c1cccc(F)c1
measured: ≥ 125 µg/mL
--
molecule: NC(=O)c1nccnc1NC(=O)c1cccc(Br)c1
measured: ≥ 125 µg/mL
--
molecule: NC(=O)c1nccnc1NC(=O)c1ccc(Cl)cc1
measured: 3.91 µg/mL
--
molecule: NC(=O)c1nccnc1NC(=O)c1cc(Cl)cc(Cl)c1
measured: ≥ 62.5 µg/mL
